# Test system: NCI-H1876 tumor spheroid viability
# protocol-notes: Anticancer human tumor NCI-H1876 cell line growth inhibition;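 note: spheroids exposed to compounds for seven days before the viability read; percent of DMSO vehicle control viability so 100% = vehicle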
# experimental-context: second compound 100 µM; first compound 0.0316 µM; hits give low values; spheroids with HUVEC and MSC
viability, T/C for assorted compounds
quantity-name: viability, T/C (%)

INSERT INTO assay_data (compound, measured_value) VALUES
  ('[2H]c1nc(C)nc([2H])c1-c1cc(NC[C@@H](C)c2cccc3c(C(=O)NC)ccnc23)ncn1 + Cn1nnc2c(C(N)=O)ncn2c1=O', 69.5),
  ('COc1cc(C)[nH]c(=O)c1CN1CCc2c(Cl)cc(C(OC)C3COC3)c(Cl)c2C1=O (stereo unspecified) + Cn1nnc2c(C(N)=O)ncn2c1=O', 92.2),
  ('CC1COCCN1c1cc(-c2ccnn2C)c2ccnc(-c3ccn[nH]3)c2n1 (stereo unspecified) + Cn1nnc2c(C(N)=O)ncn2c1=O', 32.2),
  ('COc1ccc([C@@H](O)c2cc(-c3ncnc4cc(N5CCOCC5)ccc34)c(F)cc2Cl)nn1 + Cn1nnc2c(C(N)=O)ncn2c1=O', 48.4),
  ('CC(C)n1c(=O)n(C)c2cnc3cc(F)c(-c4ccc(OCCCN5CCCCC5)nc4)cc3c21 + Cn1nnc2c(C(N)=O)ncn2c1=O', 62.4),
  ('Cc1cc(C)c(CNC(=O)c2cc(-c3ccc(CN4CCOCC4)cc3)cc3c2cnn3C2CCCC2)c(=O)[nH]1 + Cn1nnc2c(C(N)=O)ncn2c1=O', 58.8);
